SYSTEM_TESTED: T1, hPRLR.mFc (soluble dimeric human PRLR) (human)
T1 construct: dimeric PRLR construct
T1 chain: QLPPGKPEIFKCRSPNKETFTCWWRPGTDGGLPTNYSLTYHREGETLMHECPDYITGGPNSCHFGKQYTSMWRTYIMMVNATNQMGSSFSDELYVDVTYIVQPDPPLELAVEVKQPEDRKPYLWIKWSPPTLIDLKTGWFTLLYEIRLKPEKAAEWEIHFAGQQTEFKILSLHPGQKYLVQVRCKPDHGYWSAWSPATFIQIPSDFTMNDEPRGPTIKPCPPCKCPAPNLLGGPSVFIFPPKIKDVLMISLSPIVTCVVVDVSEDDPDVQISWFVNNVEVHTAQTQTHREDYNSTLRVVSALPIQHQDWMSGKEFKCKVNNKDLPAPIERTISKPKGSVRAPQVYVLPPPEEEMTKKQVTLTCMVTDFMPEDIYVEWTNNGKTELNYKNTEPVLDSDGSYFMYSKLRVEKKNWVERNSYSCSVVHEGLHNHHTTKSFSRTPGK
RUN_DESCRIPTION: SPR Biacore, 25 C, mAb capture
QUANTITY: kon (M⁻¹ s⁻¹)
Could you give me the number in M⁻¹ s⁻¹? Just the number is fine.

Examples with their reported kon follow.
Documented kon of H1H6953N (antibody, human IgG1, V domains shown, Tested with human IgG1 Fc (H1H); also called H1M6953N) VH: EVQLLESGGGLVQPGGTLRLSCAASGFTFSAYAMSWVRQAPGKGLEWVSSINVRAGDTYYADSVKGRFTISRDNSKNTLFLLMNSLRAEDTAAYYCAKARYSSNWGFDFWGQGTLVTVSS VL: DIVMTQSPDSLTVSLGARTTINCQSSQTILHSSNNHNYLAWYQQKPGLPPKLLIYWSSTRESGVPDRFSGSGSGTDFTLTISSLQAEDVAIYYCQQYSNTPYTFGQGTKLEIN : 711000

Lab book: kon of H1H6803P (antibody, human IgG1, V domains shown, Human IgG1 Fc (H1H)) VH: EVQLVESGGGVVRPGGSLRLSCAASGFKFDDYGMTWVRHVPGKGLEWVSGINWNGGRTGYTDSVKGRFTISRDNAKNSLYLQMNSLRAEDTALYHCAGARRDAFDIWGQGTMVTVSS VL: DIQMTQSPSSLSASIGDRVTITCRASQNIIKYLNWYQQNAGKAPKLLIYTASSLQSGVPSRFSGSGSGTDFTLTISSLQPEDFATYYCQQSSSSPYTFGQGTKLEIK noted as 104000

Others:
For reference, reported kon for H1H6765P (antibody, human IgG1, V domains shown, Human IgG1 Fc (H1H)) VH: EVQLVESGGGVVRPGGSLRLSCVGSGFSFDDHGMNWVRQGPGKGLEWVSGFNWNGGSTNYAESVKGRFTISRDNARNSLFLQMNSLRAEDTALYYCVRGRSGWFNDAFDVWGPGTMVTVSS VL: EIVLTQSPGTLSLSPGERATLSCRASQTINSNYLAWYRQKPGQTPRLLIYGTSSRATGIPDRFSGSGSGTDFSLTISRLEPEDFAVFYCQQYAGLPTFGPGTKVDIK stands at 869000
